- Tested on: MS2 coat protein
- TEST_DETAILS: apparent KD of MS2 coat protein, switch OFF state (with FMN for OFF switches, without FMN for ON switches); designed switch direction (-1 OFF switch, 1 ON switch): 1; higher = weaker reporter binding
- CONDITION: FMN input: 0 or 200 uM; Eterna round: R93 (includes R88 designs)
The sequences listed here are annotated with their apparent KD of MS2 coat protein.

CHAIN_SEQUENCE	apparent KD of MS2 coat protein / nM
AAGAAAGUUUACGAGGAUAUGUUCCGCAGAACAUGAGGAUCACCCAUGUGAACAAGAAAGGCGACGCAGAAGGCGUGAGCUAUGA [Anesdien]	106
UAUAGACAUGAGGAUCACCCAUGUAGAAUUAUGGGAGGAUAUACAAAGACGAGAGUCAGAGUAGAAGGCCUAGGAA [salish99-ss1-152]	55.7
AACAAUCUAUCUGAGGAUAUCAUGUCAAAGACAUGAGGAUCACCCAUGUCGCAGGAAACUGCUCAUGAGAAGGCAGAUAGAUUGA [SS2: 1128]	17.2
AAGAAACAUGAGGAUCACCCAUGUGAGAAUAACACAGGAUAUGCGAAAAGAAACAAAGAAGCAGAAGGGUGAAGAA [Mat - Same State 1 - Tesla mod - 54]	40.3
AAAUAAAGGACUGAGGAUAUACCACAUGAAACAUGAGGAUCACCCAUGUAAUAAUACAAAGGGUGGUAGAAGGUAGUCCACAAACA [so let's mod Hyphema]	26.8
AACAAUCUAUCUGAGGAUAUAUGUCGAAAGACAUGAGGAUCACCCAUGUGAAAACAUGAAAAGACAUAGAAGGCAGAUAGAUUGA [SS2: 1131]	47.3

###

- System: MS2 coat protein
- TEST_DETAILS: apparent KD of MS2 coat protein; designed switch direction (-1 OFF switch, 1 ON switch): -1; higher = weaker reporter binding
- CONDITION: Eterna round: R95; input ligand: microRNA oligo, concentration not stated

CHAIN_SEQUENCE	apparent KD of MS2 coat protein (µM)
AACAAGCUAGGAUAUACAUGAGGAUCACCCAUGUGCGACUGAUGUCCCGUGGUUGAGGGUAGAAGGAGCGAAAG [Qucelexe] (puzzle: Exclusion 3)	0.21
UCCUCACAUGAGGAUCACCCAUGUCAGGAUAUGCGCGGCCAAAAGGGCUGCUAAGGCAGCAGAAGGGACGUGAA [Rarequtece] (puzzle: Exclusion 1)	0.0141
GAUAAGGUAGGAUAUACGAAUAAAUAGGGUAGUAAUAAUACACAUGAGGAUCACCCAUGUAGAAGGACCAAUAG [Mat - Exclusion 2 - Mod of my Tesla design - D41] (puzzle: Exclusion 2)	0.0194
ACAAGCUUUUUGCUCGGGUACAUGAGGAUCACCCAUGUUGUGUUUUAUUGUUUUUGAUUGUUCGUGCGCUGCAGGUU [JR_SV3TOV1_Sub074] (puzzle: Sensor v3, turn-off variant 1)	0.0385
AAAUGCAGGUAAAGAUUCUACAUGAGGAUCACCCAUGUGCUCGUCUUAUAAAGUACUAUCACGAAAGUGAUAGUACA [Sensor 3, v1 - 41] (puzzle: Sensor v3, turn-off variant 1)	0.268
UGUGCGUAUGUGAGGAUAUGCUGGUCCUUGGAUCAGCAGAAGGCACAUGAGGAUCACCCAUGUGGUGUCGUACG [salish99_Bmod_Ex4_008] (puzzle: Brourd's mod of Exclusion 4)	0.0969
AGUACUAACACGAAAGUGUUAGUACCAUAAGCUUGUGAAACAUGAGGAUCACCCAUGUCCUCAUAAGCUCGUCUUAU [salish99_TOv2_r3_041] (puzzle: Sensor v3, turn-off variant 2)	0.72
CUUCAAUCACCAGAGCUCACACUUAUACCUGCUCUGGUGACAUGAGGAUCACCCAUGUUUUUUGCCCGUCUUAUCUU [Sensor v3, turn-off variant 2 (MOD of Leso v.3)] (puzzle: Sensor v3, turn-off variant 2)	0.033
GAUAUAGAGCAGGAUAUCUUAGAUAUGUAAUAAAGAGAAGGGCUCACAUGAGGAUCACCCAUGUGGUCCUAGAU [JL Dibiri mod 13] (puzzle: Exclusion 6)	0.0207
UGGUGUGAAGGAUAUACAUGAGGAUCACCCAUGUAUGAGGUGUGUGUUGAGGUGGAGGGUAGAAGGUCAGGUGG [JR_Exclusion3_Sub013] (puzzle: Exclusion 3)	0.0322
GUCUCGUCAGGAUAUGACGCUACAUUUUGUUUUUAGAAGAGUCAGAAGGGACAUGAGGAUCACCCAUGUGAUUC [Ex4 - 3 - 1] (puzzle: Exclusion 4)	0.257
GCAGGAUAAGUCAGGAUAUACCUAUGGAUACAUAGGUAGAAGGGACAUGAGGAUCACCCAUGUGACUCGCCUGC [Fiskers BMX 4 - 73] (puzzle: Brourd's mod of Exclusion 4)	0.0276
GCCGCUGUAGGAUAUGCCAGGGUGGCAGCUUGAUGUGUGGCACAUGAGGAUCACCCAUGUAGAAGGACAGAAAG [Isvelera] (puzzle: Exclusion 2)	0.0171
GUGUAGUCAGGAUAUACAUAGGAAGAGAAGAGAAGAUAAGCACAUGAGGAUCACCCAUGUAGAAGGGACAGUGU [Excluse me!! 3 - Jieux - Exclusion 2] (puzzle: Exclusion 2)	0.0574
UGUUGUUGAUAGGAUAUACUUGUAGGAGUAGGAGUAGAAGGAUCUACAUGAGGAUCACCCAUGUAGGAGUGAGA [JR_E6_Sub003] (puzzle: Exclusion 6)	0.0166
AUUUAGAGAGGAUAUAUAAUGUGAAACAUGAGGAUCACCCAUGUAAUAUUAUGGAUGUAAAUAGAAGGCUCAUUUA [Mat - Exclusion 5 - JL mod - D5] (puzzle: Exclusion 5)	0.0302
UAGAAGUUCAACGAGUGAGACAUGAGGAUCACCCAUGUGGUGGUAGGGAACAAGCUUUUUGCACGUACUUAUGAGGA [JR_SV3TOV1_Sub005] (puzzle: Sensor v3, turn-off variant 1)	0.269
UGUUGUUGAUAGGAUAUACUUGUAGGAGUUGUAGUAGAAGGAUCUACAUGAGGAUCACCCAUGUAGGAGUGAGU [JR_E6_Sub004] (puzzle: Exclusion 6)	0.0156
GAUUAUGCGAGCUUUAGGGACAUGAGGAUCACCCAUGUUCGUCUUAUUGAUCUGGGUACACUAACAUACCUAAAUCU [JMF 20] (puzzle: Sensor v3, turn-off variant 1)	0.0997
AGUAACUAUCACGAAAGUGAUAGUUACAAAAGCAGUGAAACAUGAGGAUCACCCAUGUCCUCAUUUGCUCGUCUUAU [Sensor 3 - 24] (puzzle: Sensor v3, turn-off variant 2)	0.576

###

The sequences listed here are annotated with their apparent KD of MS2 coat protein.
- Tested on: MS2 coat protein
- TEST_DETAILS: apparent KD of MS2 coat protein; designed switch direction (-1 OFF switch, 1 ON switch): 1; higher = weaker reporter binding
- CONDITION: Eterna round: R95; input ligand: microRNA oligo, concentration not stated

CHAIN_SEQUENCE	apparent KD of MS2 coat protein
UGUCCAGCCUGAGCUGGACAAAAGCAUGUACAUGAGGAUCACCCAUGUUCAUGUACAAGCUUUUUGCUCGUCUUAAC [salish99_208a_r3_033] (puzzle: Sensor for hsa-mir-208a)	14.1 nM
AGCUUCAAACUUUGCUCGUCGCGCCAGCGACAUGAGGAUCACCCAUGUGGGCGCAACCUCGUUAGCCCGAGGGCUCG [Labire] (puzzle: Sensor for hsa-mir-208a)	14 nM
UCUUGGUUUUUGCUCGUUUUUUGUGUUGAACAUGAGGAUCACCCAUGUAUUGUACGGUCCAAUUUAAUAAUAGUCCA [JMF 75] (puzzle: Sensor for hsa-mir-208a)	52.8 nM
CAGCGCUGUCGAGAGGAUAUGUGGUGAUGGACAUGAGGAUCACCCAUGUUAGCGACAGUAUCACGGCAGAAGGCUCUACCGCUGC [Soteed Omei mod 31] (puzzle: Same State 2)	38.1 nM
GACAAUCUAUCUGAGGAUAUCAUGAUAAUAACAUGAGGAUCACCCAUGUGCAGGAAAACUGCAUAUGAGAAGGCAGAUAGAUUGA [Mat - Same State 2 - Mod - D14] (puzzle: Same State 2)	62.3 nM

###

The sequences listed here are annotated with their apparent KD of MS2 coat protein.
- System: MS2 coat protein
- TEST_DETAILS: apparent KD of MS2 coat protein; designed switch direction (-1 OFF switch, 1 ON switch): 1; higher = weaker reporter binding
- CONDITION: input ligand: FMN 200 uM
ASSAY_ENDPOINT: apparent KD of MS2 coat protein (nM)

CHAIN_SEQUENCE	TESTED_TARGET	MEASURED_RESULT
AGGCUCAGACGAGGAUAUGAUCAUGGCGCUUCGGCGCAUACAUGAGGAUCACCCAUGUAAAGUGAUCAGAAGGCGUCUGAGCCA [SSNG2/7-A1] (Eterna round: R96, puzzle: Same State NG 2)	MS2 coat protein	12.3
UUGUUUCGUCAUUAACAUGAGGAUCACCCAUGUCUUGGCCCAGAGGAUAUGCAUGUUUGAUUGUAGCAGAAGGCUGAUUGUUGU [JR_SSNG3_Sub031] (Eterna round: R96, puzzle: Same State NG 3)	MS2 coat protein	25.9
GGUAGGUUACUACCAAUCACAUGAGGAUCACCCAUGUUGUGGGAGGAUAUGGUACCUAUUUGGUACCAGAAGGCCUUAUUAAUU [Fiskers NG3ss - 11] (Eterna round: R96, puzzle: Same State NG 3)	MS2 coat protein	74.8
